Just for reference, patent US20160311919A1 is where these values come from.

Tested Target: GPNMB-V5His (recombinant human GPNMB extracellular domain with C-terminal V5-His tag) (human) (UniProt Q14956)
Measurement Notes: ELISA, coated GPNMB, Ab 37 ng/mL
Measurement Kind: Avg OD
Please append the unit to your numeric answer.

In the examples that follow, each entry is paired with its recorded Avg OD.
INSERT INTO assay_data (binder, experimental_value) VALUES
  ('2-7 (hybridoma of Table 6) (antibody, V domains shown) VH: QVQLEQSGGGVVQPGRSLRLSCAASGFTFNNYGMHWVRQAPGKGLEWVAVIWYDGSNKYYADSVKGRFTISRDNSKNTLYLQMNSLRAEDTAVYYCAKDEEYYYVSGLDYWGQGTLVTVSS VL: LTQSPSSLSASVRDRVTITCRASQDISNYLAWYQQKPGKVPNLLIYAASTLQSGVPSRFSGSGSGTDFTLTISSLQPEDVATYYCQKYNSAPLTFGGGTKVEIKR', '0.308 OD'),
  ('2-15 (hybridoma of Table 6) (antibody, V domains shown) VH: QVQLVESGGGVVQPGRSLRLSCAASGFTFSNYGIHWVRQAPGKGLEWVAVIWFDGRNKYYADSVKGRFTISRDNSKNTLYLQMNSLRAEDAAVYYCARDPFDYGDSFFDYWGQGTLVTVSS VL: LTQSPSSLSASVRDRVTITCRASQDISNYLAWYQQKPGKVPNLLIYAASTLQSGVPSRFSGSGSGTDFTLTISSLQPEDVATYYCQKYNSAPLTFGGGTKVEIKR', '0.246 OD'),
  ('2-16 (hybridoma of Table 6) (antibody, V domains shown) VH: QVQLVESGGGLVKPGGSLRLSCAASGFTFSDYYMTWIRQAPGKGLEWVSYISISGSITHYADSVKGRFTMSRDNAKNSLYLQMNSLRAEDTAVYYCARDGAAAGTDAFDIWGHGTKVTVSS VL: EIVMTQSPATLSVSPGDRATLSCRASQNVSSNLAWYQQKPGQAPRLLIFGASTRATGIPARFSGSGSGTEFTLTISSLQSEDFAVYYCQQYHYWPTFGPGTKVDIKR', '0.017 OD'),
  ('2-17 (hybridoma of Table 6) (antibody, V domains shown) VH: QLVQSGAEVKKPGASVKVSCKASGYTFTGFYMHWVRQTPGQGLEWMGWINPNSGGTYYVQKFQGRVTMTRDTSISTVYMELSRLRSDDTAVYYCARDGYSSGEDWFDPWGQGTLVTVSS VL: DIVMTQTPLSLSVTPGQPASISCKSSQSLLHSGGKTYLYWYLQRPGQPPQLLIYEVSNRFSGVPDRFSGSGSGTDFTLKISRVEAEDVGVYYCMQSIHLPLTFGGGTKVEIKR', '0.008 OD');

Batch: Avg OD for all items listed.
1. 1.7.3 (antibody, V domains shown) VH: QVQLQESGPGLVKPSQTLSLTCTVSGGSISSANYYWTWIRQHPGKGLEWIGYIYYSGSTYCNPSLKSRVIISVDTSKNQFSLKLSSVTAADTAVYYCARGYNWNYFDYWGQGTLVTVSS VL: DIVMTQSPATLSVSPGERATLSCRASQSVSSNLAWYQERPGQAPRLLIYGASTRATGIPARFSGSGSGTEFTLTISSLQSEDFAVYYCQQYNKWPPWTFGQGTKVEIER
2. Mab1.2.2 (antibody, human IgG2, V domains shown) VH: ITLKESGPTLVKPTQTLTLTCTFSGFSLSAGGVGVGWIRQPPGKALEWLALIYWNDDKRYSPSLRSRLTITKDTSKNQVVLTITNMDPVDTATYYCAHSHYDYDWGSYFDYWGQGTLVTVSS VL: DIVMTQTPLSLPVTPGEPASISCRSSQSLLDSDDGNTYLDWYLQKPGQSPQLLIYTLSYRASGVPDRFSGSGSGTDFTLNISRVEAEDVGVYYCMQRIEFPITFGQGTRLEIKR
3. 2-22 (hybridoma of Table 6) (antibody, V domains shown) VH: QVQLEQSGPGLVKPSQNLSLTCTVSGGSISSGGYFWSWIRQHPGKGLEWIGYIYYSGNTYYNPSLKSRVTISVDTSKNQFSLKLSSVTAADTAVYYCARDYYYDTSGFSYRYDWYYGMDVWGQGTTVTVSS VL: DIQLTQSPSSLSASVGDRVTITCRASQGIRNDLGWYQQKPGKAPKRLIYAASSLQNGVPSRFSGSGSGTEFTLTISSLQPEDFATYYCLQHNTYPAFGQGTKVEIKR

["0.239 OD", "0.094 OD", "0.171 OD"]
